- Assay target: HCV NS3/4A 1b protease enzyme (wild type) (Hepatitis C virus genotype 1b, UniProt P26663)
- Construct: 10× stocks of NS3/4A protease enzyme from Bioenza (Mountain View, Calif.)
- Protocol: HCV protease FRET assay (IC50_APP), wild type NS3/4A 1b
Measured IC50, listed per entry for reference.

Compound	IC50
C=C[C@@H]1C[C@]1(NC(=O)[C@@H]1C[C@@H](OC(=O)N2Cc3cccc(F)c3C2)CN1C(=O)[C@H](CNC(=O)c1cc(C(C)=O)oc1C)NC(=O)OC(C)(C)C)C(=O)NS(=O)(=O)C1CC1 [XVI-4]	100 to 1000 nM
C=C[C@@H]1C[C@]1(NC(=O)[C@@H]1CC(Oc2cc(-c3ccccc3)nc3cc(OC)ccc23)CN1C(=O)[C@H](CNC(=O)[C@@H]1CCC(=O)O1)NC(=O)OC(C)(C)C)C(=O)NS(=O)(=O)C1CC1 (some centres unmarked) [XVI-24]	1 to 10 nM
C=C[C@@H]1C[C@]1(NC(=O)[C@@H]1CC(OC(=O)N2Cc3cccc(F)c3C2)CN1C(=O)[C@H](COC(=O)N[C@@H]1C(=O)O[C@@H]1C)NC(=O)OC(C)(C)C)C(=O)NS(=O)(=O)C1CC1 (some centres unmarked) [XVI-25]	< 1 nM

IC50 recorded for this compound, C=C[C@@H]1C[C@]1(NC(=O)[C@@H]1CC(OC(=O)N2Cc3cccc(F)c3C2)CN1C(=O)[C@H](CC(=O)N1C[C@@H]2C[C@H]1C(=O)O2)NC(=O)OC(C)(C)C)C(=O)NS(=O)(=O)C1CC1 (some centres unmarked) [XVI-15] , is < 1 nM

IC50 recorded for this compound, C=C[C@@H]1C[C@]1(NC(=O)[C@@H]1C[C@@H](Oc2nccc3cc(OC)ccc23)CN1C(=O)[C@H](CCC(=O)N1CCC1=O)NC(=O)OC(C)(C)C)C(=O)NS(=O)(=O)C1CC1 [XVI-1] , is < 1 nM

###

- Assay target: p110β/p85α (PI3Kβ) (Homo sapiens, UniProt P42338)
- Protocol: HTRF assay, p110β/p85α
- Condition notes: read-out: PI3Kβ HTRF IC50 Inhibition Designation
Measured IC50, listed per entry for reference.

The examples below pair each entry with its known result.
Compound	Property label	Result
Nc1ncc(-c2nc(N3CCOCC3)c3sc(CN4CCN(C(=O)C5CSC(=O)C5)CC4)cc3n2)cn1 (stereo not shown)	IC50	100 to 1000 nM
COc1ccc(C(=O)N2C[C@@H]3C[C@H]2C(=O)O3)cc1-n1c(CSc2ncnc3[nH]cnc23)nc2cccc(Cl)c2c1=O	IC50	100 to 1000 nM

IC50 recorded for this compound, O=C1CC[C@H](C(=O)N2CCN(Cc3cc4nc(-c5cccc6[nH]ncc56)nc(N5CCOCC5)c4s3)CC2)O1 , is 100 to 1000 nM

IC50 recorded for this compound, COc1ccc(NC(=O)[C@H]2CCC(=O)O2)cc1-n1c(CSc2ncnc3[nH]cnc23)nc2cccc(Cl)c2c1=O , is 100 to 1000 nM

IC50 recorded for this compound, C=CC(=O)Nc1ccc(-c2ccnc3ccc(-c4cnc(OC)c(NS(=O)(=O)c5ccc(F)cc5F)c4)cc23)cc1 , is < 10 nM

IC50 recorded for this compound, COC(=O)N1C(=O)CC[C@@H]1C(=O)N1CCN(Cc2cc3nc(-c4cnc(N)nc4)nc(N4CCOCC4)c3s2)CC1 , is 100 to 1000 nM

IC50 recorded for this compound, Nc1ncc(-c2nc(N3CCOCC3)c3sc(CN4CCN(C(=O)C5CCC(=O)S5)CC4)cc3n2)cn1 (stereo not shown) , is 100 to 1000 nM
